Values compiled from paper PMC8455617.

Target: T1, citrate synthase, mitochondrial (Sus scrofa, UniProt P00889)
T1 chain: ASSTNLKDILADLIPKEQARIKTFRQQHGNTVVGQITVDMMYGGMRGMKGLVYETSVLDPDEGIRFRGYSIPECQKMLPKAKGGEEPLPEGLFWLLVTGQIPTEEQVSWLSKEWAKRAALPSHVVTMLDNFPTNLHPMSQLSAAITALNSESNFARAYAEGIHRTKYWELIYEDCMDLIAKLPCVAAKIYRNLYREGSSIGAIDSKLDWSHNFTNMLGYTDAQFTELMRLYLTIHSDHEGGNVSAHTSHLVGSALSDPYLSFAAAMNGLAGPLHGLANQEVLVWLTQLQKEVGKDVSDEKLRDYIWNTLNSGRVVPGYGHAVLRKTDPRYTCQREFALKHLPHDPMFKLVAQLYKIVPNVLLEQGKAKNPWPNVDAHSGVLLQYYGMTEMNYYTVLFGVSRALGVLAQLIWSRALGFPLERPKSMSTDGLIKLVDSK
Test: MST
Reported values of pKd for individual entries
In simple prose, pKd is minus the logarithm base ten of a concentration in moles per litre.

Consider the worked cases shown below.
BINDER: malate dehydrogenase, mitochondrial (protein, 10 mM oxaloacetate) AKVAVLGASGGIGQPLSLLLKNSPLVSRLTLYDIAHTPGVAADLSHIETRATVKGYLGPEQLPDCLKGCDVVVIPAGVPRKPGMTRDDLFNTNATIVATLTAACAQHCPDAMICIISNPVNSTIPITAEVFKKHGVYNPNKIFGVTTLDIVRANAFVAELKGLDPARVSVPVIGGHAGKTIIPLISQCTPKVDFPQDQLSTLTGRIQEAGTEVVKAKAGAGSATLSMAYAGARFVFSLVDAMNGKEGVVECSFVKSQETDCPYFSTPLLLGKKGIEKNLGIGKISPFEEKMIAEAIPELKASIKKGEEFVKNMK
pKd: 5.65
--
BINDER: malate dehydrogenase, mitochondrial (protein) AKVAVLGASGGIGQPLSLLLKNSPLVSRLTLYDIAHTPGVAADLSHIETRATVKGYLGPEQLPDCLKGCDVVVIPAGVPRKPGMTRDDLFNTNATIVATLTAACAQHCPDAMICIISNPVNSTIPITAEVFKKHGVYNPNKIFGVTTLDIVRANAFVAELKGLDPARVSVPVIGGHAGKTIIPLISQCTPKVDFPQDQLSTLTGRIQEAGTEVVKAKAGAGSATLSMAYAGARFVFSLVDAMNGKEGVVECSFVKSQETDCPYFSTPLLLGKKGIEKNLGIGKISPFEEKMIAEAIPELKASIKKGEEFVKNMK
pKd: 5.64
--
BINDER: malate dehydrogenase, mitochondrial (protein, 10 mM CoA) AKVAVLGASGGIGQPLSLLLKNSPLVSRLTLYDIAHTPGVAADLSHIETRATVKGYLGPEQLPDCLKGCDVVVIPAGVPRKPGMTRDDLFNTNATIVATLTAACAQHCPDAMICIISNPVNSTIPITAEVFKKHGVYNPNKIFGVTTLDIVRANAFVAELKGLDPARVSVPVIGGHAGKTIIPLISQCTPKVDFPQDQLSTLTGRIQEAGTEVVKAKAGAGSATLSMAYAGARFVFSLVDAMNGKEGVVECSFVKSQETDCPYFSTPLLLGKKGIEKNLGIGKISPFEEKMIAEAIPELKASIKKGEEFVKNMK
pKd: 5.63

Next binder, please.
Input line: Tell me the measured pKd of malate dehydrogenase, mitochondrial (protein, 10 mM NAD+) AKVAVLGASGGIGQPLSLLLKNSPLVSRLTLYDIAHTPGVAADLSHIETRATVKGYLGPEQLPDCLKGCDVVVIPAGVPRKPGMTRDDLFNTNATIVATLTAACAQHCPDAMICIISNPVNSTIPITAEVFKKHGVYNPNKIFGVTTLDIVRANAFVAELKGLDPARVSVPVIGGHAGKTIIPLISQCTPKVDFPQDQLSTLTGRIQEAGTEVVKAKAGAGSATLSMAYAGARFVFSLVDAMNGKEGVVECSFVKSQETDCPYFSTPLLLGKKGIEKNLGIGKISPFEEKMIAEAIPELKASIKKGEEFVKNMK , please.
Output line: 6.05
